- assaySystem: T1, hFcRn with a His-tag (human, UniProt P55899 24-297; P61769 21-119)
- T1 construct: It may be the same product as m1; also called huFcRn (His tagged molecule, BPS); not shown: His-tag
- T1 sequence (P55899 24-297 limits assumed, chain 1 of 2): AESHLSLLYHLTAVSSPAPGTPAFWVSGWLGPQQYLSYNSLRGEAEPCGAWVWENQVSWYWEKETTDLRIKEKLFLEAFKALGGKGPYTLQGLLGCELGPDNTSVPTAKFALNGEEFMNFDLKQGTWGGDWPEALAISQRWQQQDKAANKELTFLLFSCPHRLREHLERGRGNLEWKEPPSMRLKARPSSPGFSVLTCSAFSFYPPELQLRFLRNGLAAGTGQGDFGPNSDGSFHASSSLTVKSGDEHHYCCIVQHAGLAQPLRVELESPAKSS
- T1 sequence (P61769 21-119 limits assumed, chain 2 of 2): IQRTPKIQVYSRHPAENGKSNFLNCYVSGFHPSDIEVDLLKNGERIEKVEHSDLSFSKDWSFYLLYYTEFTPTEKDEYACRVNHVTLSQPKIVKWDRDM
- testName: BLI (Octet), His-hFcRn on Ni-NTA biosensor, Affimer 40 nM, pH 6.0
readoutName: Response

binder	assayResult
FcRn-12 (designed binder, AFFIMER (stefin A variant)) MIPRGLSEAKPATPEIQEIVDKVKPQLEEKTNETYGKLEAVQYKTQVLAKVKTHDHQRSTNYYIKVRAGDNKYMHLKVFNGPIHQHHSQDWADRVLTGYQVDKNKDDELTGFHHHHHH	0.836
FcRn-18 (designed binder, AFFIMER (stefin A variant)) MIPRGLSEAKPATPEIQEIVDKVKPQLEEKTNETYGKLEAVQYKTQVLAETPHERHKTSTNYYIKVRAGDNKYMHLKVFNGPKRWLKHHAHADRVLTGYQVDKNKDDELTGFHHHHHH	1.2
FcRn-88 (designed binder, AFFIMER (stefin A variant)) MIPRGLSEAKPATPEIQEIVDKVKPQLEEKTNETYGKLEAVQYKTQVLAHHTKHHSRWSTNYYIKVRAGDNKYMHLKVFNGPVNHISHAPIADRVLTGYQVDKNKDDELTGFHHHHHH	1.12
FcRn-16 (designed binder, AFFIMER (stefin A variant)) MIPRGLSEAKPATPEIQEIVDKVKPQLEEKTNETYGKLEAVQYKTQVLAKHHHHKHQHSTNYYIKVRAGDNKYMHLKVFNGPVFLHNESHQADRVLTGYQVDKNKDDELTGFHHHHHH	1.07
